- TEST NAME: qHTS RealTime-Glo MT Cell Viability Assay in HEK293 cells - 40 hour (AID 1224874); note: potency is the fitted concentration of half-maximal effect; nearly all actives have a fitted effect of over 50% in size
- EXPERIMENTAL CONDITIONS: RealTime-Glo luminescence
Records with an inconclusive call do not appear. Active and inactive are the calls of the source. Calls come from the whole dose curve; as a rule, active = well fitted cell-killing curve with a large enough effect in the repeat runs; inconclusive = weak or mixed curves, or effect the other way; inactive = flat fitted curve, though single readings scatter.
MEASURED ENDPOINT: Potency

| STRUCTURE STRING | MEASURED ENDPOINT | RESULT |
| --- | --- | --- |
| CCCCCc1cc(O)cc(O)c1 | Potency | 24.5 µM (active) |
| Oc1cc(Cl)ccc1Oc1ccc(Cl)cc1Cl | Potency | 34.1 µM (active) |
| CCCCNC(=O)n1c(NC(=O)OC)nc2ccccc21 | Potency | 6.88 µM (active) |
| N[C@@H](Cc1ccc(N(CCCl)CCCl)cc1)C(=O)O | Potency | 4.69 µM (active) |
| Brc1ccc(Oc2cc(Br)c(Br)cc2Br)c(Br)c1 | Potency | 43.6 µM (active) |
| Cc1c(COC(=O)[C@@H]2[C@H](/C=C(\Cl)C(F)(F)F)C2(C)C)cccc1-c1ccccc1 | Potency | 19.1 µM (active) |

Please turn your attention to the following entry.
IN: Requested field: Potency. Item: `CN(C)c1ccc(C(=O)c2ccc(N(C)C)cc2)cc1`
OUT: 3.47 µM (active)

----------
- STUDY TARGET: Androgen receptor (Homo sapiens) (UniProt P10275)
- Sequence (P10275 whole entry, looked up): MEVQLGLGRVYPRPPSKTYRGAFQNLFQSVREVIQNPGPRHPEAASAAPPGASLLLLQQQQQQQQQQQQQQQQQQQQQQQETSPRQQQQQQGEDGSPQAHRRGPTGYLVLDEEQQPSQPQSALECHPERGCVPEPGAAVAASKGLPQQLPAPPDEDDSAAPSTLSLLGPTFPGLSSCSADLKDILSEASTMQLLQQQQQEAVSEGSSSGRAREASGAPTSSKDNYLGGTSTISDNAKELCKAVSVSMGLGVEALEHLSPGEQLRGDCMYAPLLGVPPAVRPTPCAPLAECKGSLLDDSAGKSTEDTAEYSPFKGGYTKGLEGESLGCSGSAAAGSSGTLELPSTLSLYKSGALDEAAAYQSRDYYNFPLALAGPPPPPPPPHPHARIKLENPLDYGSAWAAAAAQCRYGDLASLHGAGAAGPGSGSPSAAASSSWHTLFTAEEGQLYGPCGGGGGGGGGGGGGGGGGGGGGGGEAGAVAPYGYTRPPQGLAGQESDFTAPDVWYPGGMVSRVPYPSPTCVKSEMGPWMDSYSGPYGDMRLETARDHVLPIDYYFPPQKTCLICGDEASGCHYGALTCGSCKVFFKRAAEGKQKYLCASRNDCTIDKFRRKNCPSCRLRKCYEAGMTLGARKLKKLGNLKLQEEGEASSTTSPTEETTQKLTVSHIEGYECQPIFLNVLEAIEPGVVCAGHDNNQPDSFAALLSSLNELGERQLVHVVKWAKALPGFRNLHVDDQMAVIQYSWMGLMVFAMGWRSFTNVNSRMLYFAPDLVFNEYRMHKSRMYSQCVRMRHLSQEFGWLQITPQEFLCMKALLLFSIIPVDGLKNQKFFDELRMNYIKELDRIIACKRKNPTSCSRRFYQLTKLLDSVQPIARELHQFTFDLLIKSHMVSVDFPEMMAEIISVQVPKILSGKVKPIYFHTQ
- TEST NAME: qHTS assay to identify small molecule antagonists of the androgen receptor (AR) signaling pathway using the MDA cell line in the presence of 0.5 nM R1881 (AID 1259243); note: nearly all actives have a fitted effect of over 50% in size
- EXPERIMENTAL CONDITIONS: MDA-kb2 MMTV-luciferase, R1881 0.5 nM, 16 h; series mostly up to 92.4 µM
- Excerpt: U.S. Tox21 Program National Center for Advancing Translational Sciences [NCATS] NIH Chemical Genomics Center [NCGC] U.S. Environmental Protection Agency [EPA] National Institutes of Environmental Health Sciences [NIEHS] National Toxicology Program [NTP] U.S. Food and Drug Administration [FDA] Tox21 Assay Overview: Androgen receptor (AR) is an important member of the nuclear receptor family. Its signaling plays a critical role in AR-dependent prostate cancer and other androgen related diseases. […]
Inconclusive results are not listed. Activity calls are given as the source filed them. The call rests on the fitted dose curve; in most records, active means well fitted inhibition curve with a large enough effect in the repeat runs; inconclusive means weak or mixed curves; inactive means no such curve, though single readings can be large or run the other way.
// allowed return values: y (active), n (inactive)

| COMPOUND | CATEGORY LABEL |
| --- | --- |
| CCC(=O)O[C@H]1CC[C@H]2[C@@H]3CCC4=CC(=O)CC[C@]4(C)[C@H]3CC[C@]12C | n |
| Cc1cc(Cl)ccc1OCCCC(=O)O | n |
| Nc1ccc(Cl)cc1N | n |
| CC(C)Oc1cc(-n2nc(C(C)(C)C)oc2=O)c(Cl)cc1Cl | y |
| CCCCCCCCOC(=O)c1ccccc1C(=O)OCCCCCCCC | n |

IN: Hi, sorry to bother you, what did the test record for `Nc1ccncc1` ?
OUT: n

IN: What do you get for c1cc(OCC2CO2)ccc1Cc1ccc(OCC2CO2)cc1 (stereo not drawn) ?
OUT: n

IN: What do you get for `CCN(CC)C(=O)/C(Cl)=C(\C)OP(=O)(OC)OC` ?
OUT: n

----------
- STUDY TARGET: Peroxisome proliferator-activated receptor gamma (Homo sapiens)
- TEST NAME: qHTS assay to identify small molecule antagonists of the peroxisome proliferator-activated receptor gamma (PPARg) signaling pathway (AID 743191); note: nearly all actives have a fitted effect of over 30% in size
- EXPERIMENTAL CONDITIONS: HEK293H PPARg-UAS-bla, beta-lactamase ratio, antagonist, 17 h; series mostly up to 62.6 µM
Results filed as inconclusive are left out. Active and inactive are the calls of the source. Calls come from the whole dose curve.
// allowed return values: active, inactive

Solved entries (count: 10):
| COMPOUND | CATEGORY LABEL |
| --- | --- |
| CC(C)(C)c1ccccc1O | inactive |
| N[C@@H](Cc1ccc(N(CCCl)CCCl)cc1)C(=O)O | inactive |
| Oc1c(Cl)c(Cl)c(Cl)c(Cl)c1Cl | active |
| CCCCOCCOP(=O)(OCCOCCCC)OCCOCCCC | inactive |
| COc1ccc(C=O)cc1 | inactive |
| CN(C)C(=O)Nc1ccc(Cl)cc1 | inactive |
| CC(O)CCO (stereo unspecified) | inactive |
| c1ccc(N=Nc2ccccc2)cc1 | inactive |
| Cc1ccccc1[N+](=O)[O-] | inactive |
| CCCCN(CCCC)N=O | inactive |

From here, focus on the item given below.
IN: Hi, sorry to bother you, what did the test record for `C1=Cc2cccc3cccc1c23` ?
OUT: inactive
